// provenance: patent US6579881B2

Molecular target: serotonin 1A receptor (Rattus norvegicus, UniProt P19327)
Sequence (P19327 1-422): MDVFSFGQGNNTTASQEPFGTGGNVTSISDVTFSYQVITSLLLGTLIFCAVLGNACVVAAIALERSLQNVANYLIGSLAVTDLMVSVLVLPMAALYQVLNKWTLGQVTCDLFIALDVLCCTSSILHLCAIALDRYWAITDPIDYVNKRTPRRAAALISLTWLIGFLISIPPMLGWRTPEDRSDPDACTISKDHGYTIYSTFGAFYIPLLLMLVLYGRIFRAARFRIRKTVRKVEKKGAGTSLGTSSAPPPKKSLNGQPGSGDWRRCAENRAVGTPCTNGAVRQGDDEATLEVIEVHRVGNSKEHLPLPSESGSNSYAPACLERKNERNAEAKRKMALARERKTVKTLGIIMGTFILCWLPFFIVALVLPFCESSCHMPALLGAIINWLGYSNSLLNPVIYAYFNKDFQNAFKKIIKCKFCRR
attributeMeasured: Ki (nM)

Worked cases, Ki given:
{"columns": ["compound", "measurementUnits", "Ki"],
 "data": [
  ["CC(=O)Nc1ccc(CCN2CCC(N3CCc4ccccc43)CC2)cc1 [Example 32]", "nM", 30.2],
  ["O=Cc1ccc2c(c1)N(C1CCN(CCc3ccc(F)cc3)CC1)CC2 [Example 130]", "nM", 0.49],
  ["C[C@@H]1CN(CCc2ccc(F)cc2)CC[C@@H]1N1CCc2ccccc21 (relative stereo) [Example 79]", "nM", 115]
]}

(1) OCc1ccc(OCCCN2CCC(N3CCc4ccccc43)CC2)cc1 [Example 70]
(2) COc1cccc2c1N(C1CCN(CCc3ccc(F)cc3)CC1)CC2 [Example 107]
Between 1 and 2 , which one has the lower reported Ki value? // return label of chosen record
2

* * *

molecular target: α1 adrenalin receptor; experiment: Binding test on [3H] prazosin (α1 adrenalin receptor); set-up: species or system rat; details: [3H] prazosin about 0.2 nM, receptor fraction of rat cerebral cortex
Structures can show the parent of a compound that is named as a salt.
attributeMeasured: Ki (nM)

Below: 6 molecules and their reported Ki.
{"columns": ["molecule", "testedTarget", "valueReported"],
 "data": [
  ["O=C(Cc1ccc2ccn(C3CCN(CCc4ccc(F)cc4)CC3)c2c1)NCC(O)CO (centres unmarked) [Example 340, Oxalate]", "α1 adrenalin receptor", 340],
  ["O=C(Cc1ccc2ccn(C3CCN(CCc4ccc(F)cc4)CC3)c2c1)N1CCCC1 [Example 298]", "α1 adrenalin receptor", 27.9],
  ["CC(=O)N1CCC(Cc2ccc3c(c2)N(C2CCN(CCc4ccc(F)cc4)CC2)CC3)CC1 [Example 168]", "α1 adrenalin receptor", 72.6],
  ["NC(=O)Cc1ccc2ccn(C3CCN(CCc4ccc(F)cc4)CC3)c2c1 [Example 305]", "α1 adrenalin receptor", 35.9],
  ["O=C(Cc1ccc2ccn(C3CCN(CCc4ccc(F)cc4)CC3)c2c1)NCc1ccncc1 [Example 314]", "α1 adrenalin receptor", 51.3],
  ["CN(C)CC(=O)NCc1ccc2ccn(C3CCN(CCc4ccc(F)cc4)CC3)c2c1 [Example 375]", "α1 adrenalin receptor", 61.4]
]}

(1) CS(=O)(=O)NCc1ccc2ccn(C3CCN(CCc4ccc(F)cc4)CC3)c2c1 [Example 322]
(2) COCCNC(=O)Cc1ccc2ccn(C3CCN(CCc4ccc(F)cc4)CC3)c2c1 [Example 309]
Of 1 and 2 , which one carries the higher reported Ki? To answer, give the label that identifies your chosen option.
2
(2: 123 nM, 1: 41.3 nM)
